Molecular target: PI3Kα (p110α) (Homo sapiens)
Construct: N-6*His tag-TEV site-p85α (318–615) - GSPGISGGGGG-full length p110α fusion protein; with p85α (318–615), PIK3R1
Sequence (P42336 whole entry, the tested form may be a part): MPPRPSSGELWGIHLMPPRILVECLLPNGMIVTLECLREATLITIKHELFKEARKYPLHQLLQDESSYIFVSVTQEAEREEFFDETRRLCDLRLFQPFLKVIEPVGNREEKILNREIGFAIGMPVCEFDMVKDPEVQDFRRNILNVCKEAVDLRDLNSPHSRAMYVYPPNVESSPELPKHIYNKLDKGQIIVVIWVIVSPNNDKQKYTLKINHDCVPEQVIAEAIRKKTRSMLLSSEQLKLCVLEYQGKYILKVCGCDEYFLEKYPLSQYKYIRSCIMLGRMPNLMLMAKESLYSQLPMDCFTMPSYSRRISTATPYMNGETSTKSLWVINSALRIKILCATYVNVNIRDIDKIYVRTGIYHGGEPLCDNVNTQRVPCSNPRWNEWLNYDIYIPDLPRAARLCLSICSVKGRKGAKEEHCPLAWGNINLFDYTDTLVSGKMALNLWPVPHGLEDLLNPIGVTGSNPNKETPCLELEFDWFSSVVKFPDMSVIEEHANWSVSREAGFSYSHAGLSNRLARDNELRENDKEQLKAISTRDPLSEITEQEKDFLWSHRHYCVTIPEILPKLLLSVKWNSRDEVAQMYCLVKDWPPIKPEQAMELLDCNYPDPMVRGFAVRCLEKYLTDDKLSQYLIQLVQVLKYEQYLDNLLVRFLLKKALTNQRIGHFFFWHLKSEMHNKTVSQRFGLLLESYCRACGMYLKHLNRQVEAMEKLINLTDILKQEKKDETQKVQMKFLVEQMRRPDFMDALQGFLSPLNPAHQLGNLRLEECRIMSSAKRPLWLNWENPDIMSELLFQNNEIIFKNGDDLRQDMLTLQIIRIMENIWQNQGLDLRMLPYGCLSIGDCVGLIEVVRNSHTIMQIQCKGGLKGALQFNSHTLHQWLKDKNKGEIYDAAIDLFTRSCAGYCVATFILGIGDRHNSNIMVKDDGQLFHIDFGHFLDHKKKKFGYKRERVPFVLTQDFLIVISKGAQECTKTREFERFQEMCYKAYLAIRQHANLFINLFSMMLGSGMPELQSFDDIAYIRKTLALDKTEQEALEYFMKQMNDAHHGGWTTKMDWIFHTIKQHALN
Sequence (P27986 318-615 partner): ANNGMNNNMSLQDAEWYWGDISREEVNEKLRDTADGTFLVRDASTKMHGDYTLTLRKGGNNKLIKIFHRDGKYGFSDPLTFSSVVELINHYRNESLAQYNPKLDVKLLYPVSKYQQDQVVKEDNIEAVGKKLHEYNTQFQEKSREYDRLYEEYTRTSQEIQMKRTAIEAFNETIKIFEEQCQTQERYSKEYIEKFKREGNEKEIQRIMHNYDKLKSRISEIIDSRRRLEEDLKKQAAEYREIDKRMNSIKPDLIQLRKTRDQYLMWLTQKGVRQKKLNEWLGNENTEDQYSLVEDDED
Test: X-ray co-crystal structure (apo crystals soaked); IC50 from PI3K HTRF assay on purified enzyme
Text: X-ray co-crystal structure (apo crystals soaked); IC50 from PI3K HTRF assay on purified enzyme on PI3Kα (p110α) | The crystal structure of PI3Kα–YXY-4F verified that the compound YXY-4F bound to the ATP-binding pocket
MEASUREMENT TYPE: IC50
Please answer in the form of a number followed by its unit of measurement.

Prompt: Quote IC50 reported for `Oc1cc(NCc2ccc(F)cc2)cc(-c2nc(N3CCOCC3)c3sccc3n2)c1` please.
Completion: 1020 nM
